Where these numbers come from: ChEMBL document CHEMBL4251578

- Test system: NCI-H1299
- assay_remarks: Antiproliferative activity against human NCI-H1299 cells after 72 hrs by CCK-8 assay
- Assay type: functional, cell-based
- test_settings: NCI-H1299, 72 h
measure_name: IC50 (nM)

Answered examples (2):
Nc1ccccc1NC(=O)c1ccc(CSC(=S)N2CCN(c3ccc(F)cc3)CC2)cc1
980
Nc1ccccc1NC(=O)c1ccc(CSC(=S)N2CCc3ccccc3C2)cc1
980

[a] Nc1ccccc1NC(=O)c1ccc(CSC(=S)N2CCN(c3ccccc3)CC2)cc1
[b] Nc1ccccc1NC(=O)c1ccc(CNC(=O)OCc2cccnc2)cc1
[c] Nc1ccccc1NC(=O)c1ccc(CSC(=S)N2CCc3ccccc32)cc1
[d] Nc1ccc(F)cc1NC(=O)c1ccc(CNC(=O)/C=C/c2cccnc2)cc1
[e] CC1CCCCN1C(=S)SCc1ccc(C(=O)Nc2ccccc2N)cc1 (configuration not stated)
Exam item: list the entries in increasing order of IC50. Hello, could you send the labels back in the order asked? Thank you.
a, e, c, b, d

###

Listed next: entries and their corresponding viability at 0.125 µM.
- Tested on: SMMC-7721
- assay_remarks: Induction of apoptosis in human SMMC7721 cells assessed as viable cells at 0.125 umol/L after 72 hrs by Alexa Fluor 488 Annexin/propidium iodide staining-based flow cytometric analysis (reference value: 97.14%)
- Assay type: functional
- test_settings: SMMC-7721, 72 h, read-out: Activity
I only need the number, in %, no unit after it.

Answered examples (3):
Nc1ccccc1NC(=O)c1ccc(CSC(=S)N2CCc3ccccc3C2)cc1
71.2
Nc1ccccc1NC(=O)c1ccc(CNC(=O)OCc2cccnc2)cc1 [ENTINOSTAT]
77.5
Nc1ccc(F)cc1NC(=O)c1ccc(CNC(=O)/C=C/c2cccnc2)cc1
78.3

Quick one: viability at 0.125 µM for Nc1ccccc1NC(=O)c1ccc(CSC(=S)N2CCN(c3ccncc3)CC2)cc1 ?
72.5

Quick one: viability at 0.125 µM for CCN(Cc1ccncc1)C(=S)SCc1ccc(C(=O)Nc2ccccc2N)cc1 ?
73.1

###

Listed next: entries and their corresponding inhibition at 8 µM.
- Tested on: A-375
- assay_remarks: Antiproliferative activity against human A375 cells at 8 uM after 72 hrs by CCK-8 assay relative to control
- Format: functional
- test_settings: A-375, 72 h
I only need the number, in %, no unit after it.

Answered examples (4):
Nc1ccccc1NC(=O)c1ccc(CSC(=S)N2CCN(c3ccc(F)cc3)CC2)cc1
76.3
CC(=O)Nc1ccc(C(=O)Nc2ccccc2N)cc1 [TACEDINALINE]
33.5
Nc1ccccc1NC(=O)c1ccc(CSC(=S)N2CCN(Cc3cccnc3)CC2)cc1
89.2
Nc1ccccc1NC(=O)c1ccc(CSC(=S)N2CCN(c3ccc(Cl)cc3)CC2)cc1
29

Quick one: inhibition at 8 µM for Nc1ccccc1NC(=O)c1ccc(CSC(=S)N2CCN(c3ncccn3)CC2)cc1 ?
67.9

###

Listed next: entries and their corresponding inhibition at 8 µM.
- System: A-375
- assay_remarks: Antiproliferative activity against human A375 cells at 8 uM after 72 hrs by CCK-8 assay relative to control
- Type: functional
- test_settings: A-375, 72 h
I only need the number, in %, no unit after it.

COC(=O)c1ccc2c(c1)CCN2C(=S)SCc1ccc(C(=O)Nc2ccccc2N)cc1
79.2
Nc1ccccc1NC(=O)c1ccc(CSC(=S)N2CCN(Cc3ccccn3)CC2)cc1
82.4
CC1CCCCN1C(=S)SCc1ccc(C(=O)Nc2ccccc2N)cc1 (stereo not given)
85.2
Nc1ccccc1NC(=O)c1ccc(CSC(=S)N2CCc3cc(Cl)ccc32)cc1
82.3
COc1ccc(N2CCN(C(=S)SCc3ccc(C(=O)Nc4ccccc4N)cc3)CC2)cc1
35.9
Cc1ccc(N2CCN(C(=S)SCc3ccc(C(=O)Nc4ccccc4N)cc3)CC2)cc1
26.4
Nc1ccc(F)cc1NC(=O)c1ccc(CNC(=O)/C=C/c2cccnc2)cc1
54.3
Nc1ccccc1NC(=O)c1ccc(CSC(=S)N2CCN(C3CCCCC3)CC2)cc1
89.9

Quick one: inhibition at 8 µM for CN1CCN(C(=S)SCc2ccc(C(=O)Nc3ccccc3N)cc2)CC1 ?
91.6

Quick one: inhibition at 8 µM for CN(Cc1ccncc1)C(=S)SCc1ccc(C(=O)Nc2ccccc2N)cc1 ?
86.1
